Hey, just so you know, these numbers are from patent US20090304651A1.

molecular target: T1, recombinant human IGF-II (Insulin-like Growth Factor II) (human, UniProt P01344 25-91, biotinylated (Biotinyl-IGF-II, GroPep) where immobilised in SPR, site not stated; not biotinylated in ITC and as SPR analyte); experiment: SPR, IGF-II immobilised, kinetic fit
T1 construct: also called IGF2; IGF-2
T1 sequence (P01344 25-91 limits assumed): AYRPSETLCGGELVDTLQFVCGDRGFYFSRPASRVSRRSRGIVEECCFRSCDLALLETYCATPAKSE
assayReadout: Kd
# output: number + unit

Looking up IGF2R domain 11 E1544A (amino acids 1511-1650, C-terminal His6 tag, from Pichia pastoris) (receptor) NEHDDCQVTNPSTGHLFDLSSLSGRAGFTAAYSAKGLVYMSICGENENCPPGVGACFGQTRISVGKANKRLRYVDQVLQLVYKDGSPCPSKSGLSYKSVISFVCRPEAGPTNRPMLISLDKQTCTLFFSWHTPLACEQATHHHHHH , I found its Kd recorded as 45.5 nM

The binder IGF2R domain 11 with leucine at position 1544 (E1544L) (receptor) NEHDDCQVTNPSTGHLFDLSSLSGRAGFTAAYSLKGLVYMSICGENENCPPGVGACFGQTRISVGKANKRLRYVDQVLQLVYKDGSPCPSKSGLSYKSVISFVCRPEAGPTNRPMLISLDKQTCTLFFSWHTPLACEQATHHHHHH showed Kd equal to 62.4 nM

According to the records, this binder IGF2R domain 11 with phenylalanine at position 1544 (E1544F) (receptor) NEHDDCQVTNPSTGHLFDLSSLSGRAGFTAAYSFKGLVYMSICGENENCPPGVGACFGQTRISVGKANKRLRYVDQVLQLVYKDGSPCPSKSGLSYKSVISFVCRPEAGPTNRPMLISLDKQTCTLFFSWHTPLACEQATHHHHHH displays Kd of 69.4 nM

For IGF2R domain 11 with aspartate at position 1544 (E1544D) (receptor) NEHDDCQVTNPSTGHLFDLSSLSGRAGFTAAYSDKGLVYMSICGENENCPPGVGACFGQTRISVGKANKRLRYVDQVLQLVYKDGSPCPSKSGLSYKSVISFVCRPEAGPTNRPMLISLDKQTCTLFFSWHTPLACEQATHHHHHH the binder record lists Kd as 230 nM
